Provide the recorded Kd for the entries that follow.
target: human uPAR (uPAR-Fc) (Homo sapiens, UniProt Q03405); construct: comprising amino acids Leu23-Arg303 according to UniProt entry Q03405.1; purchased R&D Systems 10378-UK-100; assay: Surface plasmon resonance (SPR) assay, single cycle kinetics; type: binding; conditions: pKD category for uPAR SPR activity assay; uPAR-Fc on Protein A-Chip, single cycle kinetics, 25°C; read-out: pKD CAT (converted)
Sequence (Q03405 23-303): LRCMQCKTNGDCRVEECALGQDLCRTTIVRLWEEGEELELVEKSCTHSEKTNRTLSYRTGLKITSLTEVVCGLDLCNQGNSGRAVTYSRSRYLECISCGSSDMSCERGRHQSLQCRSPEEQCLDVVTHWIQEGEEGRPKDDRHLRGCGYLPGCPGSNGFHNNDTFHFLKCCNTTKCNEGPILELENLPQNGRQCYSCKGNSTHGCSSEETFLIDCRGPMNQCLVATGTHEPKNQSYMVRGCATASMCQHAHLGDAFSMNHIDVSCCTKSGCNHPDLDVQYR
*1 amine or outer side, *2 acyl side, *3 side chain or, on linkers, in order; H or OH if unused. Where a SMILES comes first, the peptide text is derived from it. Bridges are numbered along the chain shown (N, C = ends). [ ]: non-standard residue; d: D form. The star is where a group is joined. DOTA = O=C(O)CN1CCN(CC(=O)O)CCN(CC(=O)*)CCN(CC(=O)O)CC1; Pro(cis-4-F) = O=C(O)[C@@H]1C[C@H](F)CN1; Glutaryl = O=C(CCCC(=O)[*:2])[*:1]; Hyp = O=C(O)[C@@H]1C[C@@H](O)CN1; Pentanoyl(4-Me) = CC(C)CCC(=O)*; Cit = NC(=O)NCCC[C@H](N)C(=O)O; Butoxycarbonyl = CCCCOC(=O)*; NMeNle = CCCC[C@H](NC)C(=O)O; NMeV = CN[C@H](C(=O)O)C(C)C; dNMeA = CN[C@H](C)C(=O)O; Nva = CCC[C@H](N)C(=O)O; Dap = NC[C@H](N)C(=O)O; Pentanoyl = CCCCC(=O)*; CO = O=C([*:1])[*:2]; NHBu = CCCCN*

- COMPOUND: "CCCC[C@H](NC)C(=O)N[C@H]1CSSC[C@@H](C(N)=O)NC(=O)[C@H](CCC)NC(=O)[C@H]([C@@H](C)CC)NC(=O)[C@@H]2C[C@@H](O)CN2C(=O)[C@@H]2C[C@H](F)CN2C(=O)[C@H](Cc2ccccc2)NC(=O)[C@H](Cc2ccc(O)cc2)NC(=O)[C@H](CCCCNC(=O)CN2CCN(CC(=O)O)CCN(CC(=O)O)CCN(CC(=O)O)CC2)NC(=O)[C@H]([C@@H](C)O)NC1=O [UPAR-428] (H-[NMeNle]CTK(DOTA)YF[Pro(cis-4-F)][Hyp]I[Nva]C-NH2; disulfide 2-11)"
  Kd: "< 1.58 nM"
- COMPOUND: "CC[C@H](C)[C@@H]1NC(=O)[C@@H](C)NC(=O)[C@@H]2C[C@@H](O)CN2C(=O)[C@H](Cc2ccccc2)NC(=O)[C@H](Cc2ccc(O)cc2)NC(=O)[C@H](CCC(N)=O)NC(=O)[C@H](CCCNC(N)=O)NC(=O)[C@@H](NC(=O)CCC(C)C)CSSC[C@@H](C(N)=O)NC(=O)[C@H](CC(C)C)NC1=O [UPAR-439] ({Pentanoyl(4-Me)}-C[Cit]QYF[Hyp][dA]ILC-NH2; disulfide 1-10)"
  Kd: "1.58 to 10 nM"
- COMPOUND: "CC[C@H](C)[C@@H]1NC(=O)[C@@H](C)NC(=O)[C@@H]2CCCN2C(=O)[C@H](Cc2ccccc2)NC(=O)[C@H](Cc2ccc(O)cc2)NC(=O)[C@H](CCC(N)=O)NC(=O)[C@H](CCCNC(N)=O)NC(=O)[C@@H](NC(=O)CCCC(=O)O)CSSC[C@@H](C(N)=O)NC(=O)[C@H](CC(C)C)NC1=O [UPAR-359] (Glutaryl-C[Cit]QYFP[dA]ILC-NH2; disulfide 1-10)"
  Kd: "> 100 nM"
- COMPOUND: "CCCCC(=O)N[C@H]1CSSC[C@@H](C(N)=O)NC(=O)[C@H](CCC)NC(=O)[C@H]([C@@H](C)CC)NC(=O)[C@@H]2C[C@@H](O)CN2C(=O)[C@H](C(C)C)N(C)C(=O)[C@H](Cc2ccccc2)NC(=O)[C@H](Cc2ccc(O)cc2)NC(=O)[C@H](CCC(N)=O)NC(=O)[C@H](CCCNC(=N)N)NC1=O [UPAR-470] (Pentanoyl-CRQYF[NMeV][Hyp]I[Nva]C-NH2; disulfide 1-10)"
  Kd: "> 100 nM"
- COMPOUND: "CCCCC(=O)N[C@H]1CSSC[C@@H](C(N)=O)NC(=O)[C@H](CCC)NC(=O)[C@H]([C@@H](C)CC)NC(=O)[C@@H]2C[C@@H](O)CN2C(=O)[C@@H]2C[C@@H](O)CN2C(=O)[C@H](Cc2ccccc2)NC(=O)[C@H](Cc2ccc(O)cc2)NC(=O)[C@H](CCCCNC(=O)CN2CCN(CC(=O)O)CCN(CC(=O)O)CCN(CC(=O)O)CC2)NC(=O)[C@H](CCCNC(N)=O)NC1=O [UPAR-403] (Pentanoyl-C[Cit]K(DOTA)YF[Hyp][Hyp]I[Nva]C-NH2; disulfide 1-10)"
  Kd: "< 1.58 nM"
- COMPOUND: "CCCCC(=O)N[C@H]1CSSC[C@@H](C(N)=O)NC(=O)[C@H](CCC)NC(=O)[C@H]([C@@H](C)CC)NC(=O)[C@@H](CCC(=O)O)NC(=O)[C@@H]2CCCN2C(=O)[C@H](Cc2ccccc2)NC(=O)[C@H](Cc2ccc(O)cc2)NC(=O)[C@H](CCC(N)=O)NC(=O)[C@H](CCCNC(=N)N)NC1=O [UPAR-436] (Pentanoyl-CRQYFP[dE]I[Nva]C-NH2; disulfide 1-10)"
  Kd: "10 to 100 nM"
- COMPOUND: "CCCCC(=O)N[C@H]1CSSC[C@@H](C(N)=O)NC(=O)[C@H](CCC)NC(=O)[C@H]([C@@H](C)CC)NC(=O)[C@@H](C)N(C)C(=O)[C@@H]2CCCN2C(=O)[C@H](Cc2ccccc2)NC(=O)[C@H](Cc2ccc(O)cc2)NC(=O)[C@H](CCCCNC(=O)CN2CCN(CC(=O)O)CCN(CC(=O)O)CCN(CC(=O)O)CC2)NC(=O)[C@H](CCCNC(N)=O)NC1=O [UPAR-384] (Pentanoyl-C[Cit]K(DOTA)YFP[dNMeA]I[Nva]C-NH2; disulfide 1-10)"
  Kd: "< 1.58 nM"
- COMPOUND: "CC[C@H](C)[C@@H]1NC(=O)[C@@H]2C[C@@H](O)CN2C(=O)[C@@H]2CCCN2C(=O)[C@H](Cc2ccccc2)NC(=O)[C@H](Cc2ccc(O)cc2)NC(=O)[C@H](CC(=O)O)NC(=O)[C@H](CCCNC(=N)N)NC(=O)[C@@H](NC(=O)CCC(C)C)CSSC[C@@H](C(N)=O)NC(=O)[C@H](CC(C)C)NC1=O [UPAR-458] ({Pentanoyl(4-Me)}-CRDYFP[Hyp]ILC-NH2; disulfide 1-10)"
  Kd: "< 1.58 nM"

Give one value of Kd per listed compound.
1. CCCCOC(=O)N[C@H]1CSSC[C@@H](C(N)=O)NC(=O)[C@H](CCC)NC(=O)[C@H]([C@@H](C)CC)NC(=O)[C@@H]2C[C@@H](O)CN2C(=O)[C@@H]2C[C@H](F)CN2C(=O)[C@H](Cc2ccccc2)NC(=O)[C@H](Cc2ccc(O)cc2)NC(=O)[C@H](CNC(=O)CN2CCN(CC(=O)O)CCN(CC(=O)O)CCN(CC(=O)O)CC2)NC(=O)[C@H]([C@@H](C)O)NC1=O [UPAR-455] (Butoxycarbonyl-CT[Dap](DOTA)YF[Pro(cis-4-F)][Hyp]I[Nva]C-NH2; disulfide 1-10)
2. CCCCNC(=O)N[C@H]1CSSC[C@@H](C(N)=O)NC(=O)[C@H](CCC)NC(=O)[C@H]([C@@H](C)CC)NC(=O)[C@@H]2C[C@@H](O)CN2C(=O)[C@@H]2CCCN2C(=O)[C@H](Cc2ccccc2)NC(=O)[C@H](Cc2ccc(O)cc2)NC(=O)[C@H](CCCCNC(=O)CN2CCN(CC(=O)O)CCN(CC(=O)O)CCN(CC(=O)O)CC2)NC(=O)[C@H](CCCNC(N)=O)NC1=O [UPAR-346] ({NHBu-CO}-C[Cit]K(DOTA)YFP[Hyp]I[Nva]C-NH2; disulfide 1-10)

Ans.
["< 1.58 nM", "< 1.58 nM"]

---

Provide the recorded IC50 for the entries that follow.
target: uPAR-expressing HEC-265 human endometrial adenocarcinoma cells (Homo sapiens, UniProt Q03405)
Sequence (Q03405 23-335): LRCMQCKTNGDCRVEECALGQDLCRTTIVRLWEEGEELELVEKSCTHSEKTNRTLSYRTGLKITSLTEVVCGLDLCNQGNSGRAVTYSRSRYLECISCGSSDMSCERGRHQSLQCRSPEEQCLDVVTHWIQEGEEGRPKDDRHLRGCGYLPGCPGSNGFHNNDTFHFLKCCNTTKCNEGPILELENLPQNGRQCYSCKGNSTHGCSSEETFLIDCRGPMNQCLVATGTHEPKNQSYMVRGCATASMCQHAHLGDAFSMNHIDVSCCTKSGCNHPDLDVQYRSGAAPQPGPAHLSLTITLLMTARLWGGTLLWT
Where a SMILES comes first, the peptide text is derived from it. Bridges are numbered along the chain shown (N, C = ends). [ ]: non-standard residue; d: D form. The star is where a group is joined. DOTA = O=C(O)CN1CCN(CC(=O)O)CCN(CC(=O)*)CCN(CC(=O)O)CC1; Pro(trans-4-F) = O=C(O)[C@@H]1C[C@@H](F)CN1; Phe(4-NH2) = Nc1ccc(C[C@H](N)C(=O)O)cc1; Phe(2-Cl) = N[C@@H](Cc1ccccc1Cl)C(=O)O; Pro(4R-NH2) = N[C@H]1CN[C@H](C(=O)O)C1; Hyp = O=C(O)[C@@H]1C[C@@H](O)CN1; Pentanoyl(4-Me) = CC(C)CCC(=O)*; Cit = NC(=O)NCCC[C@H](N)C(=O)O; Nva = CCC[C@H](N)C(=O)O; Pentanoyl = CCCCC(=O)*

- MOLECULE: "CCCCC(=O)N[C@H]1CSSC[C@@H](C(N)=O)NC(=O)[C@H](CCC)NC(=O)[C@H]([C@@H](C)CC)NC(=O)[C@@H]2C[C@@H](O)CN2C(=O)[C@@H]2CCCN2C(=O)[C@H](Cc2ccccc2)NC(=O)[C@H](Cc2ccc(N)cc2)NC(=O)[C@H](CCCCNC(=O)CN2CCN(CC(=O)O)CCN(CC(=O)O)CCN(CC(=O)O)CC2)NC(=O)[C@H](CCCNC(N)=O)NC1=O [UPAR-320] (Pentanoyl-C[Cit]K(DOTA)[Phe(4-NH2)]FP[Hyp]I[Nva]C-NH2; disulfide 1-10)"
  METRIC_NAME: "IC50"
  RESULT: "≤ 0.01 µM"
- MOLECULE: "CC[C@H](C)[C@@H]1NC(=O)[C@@H](C)NC(=O)[C@@H]2CCCN2C(=O)[C@H](C)NC(=O)[C@H](Cc2ccc(O)cc2)NC(=O)[C@H](CCC(N)=O)NC(=O)[C@H](CCCNC(N)=O)NC(=O)[C@@H](NC(=O)CCC(C)C)CSSC[C@@H](C(N)=O)NC(=O)[C@H](CC(C)C)NC1=O [UPAR-263] ({Pentanoyl(4-Me)}-C[Cit]QYAP[dA]ILC-NH2; disulfide 1-10)"
  METRIC_NAME: "IC50"
  RESULT: "≥ 0.126 µM"
- MOLECULE: "CCCCC(=O)N[C@H]1CSSC[C@@H](C(N)=O)NC(=O)[C@H](CCC)NC(=O)[C@H]([C@@H](C)CC)NC(=O)[C@@H]2C[C@@H](O)CN2C(=O)[C@@H]2CCCN2C(=O)[C@H](Cc2ccccc2)NC(=O)[C@H](Cc2ccccc2Cl)NC(=O)[C@H](CCC(N)=O)NC(=O)[C@H](CCCNC(=N)N)NC1=O [UPAR-395] (Pentanoyl-CRQ[Phe(2-Cl)]FP[Hyp]I[Nva]C-NH2; disulfide 1-10)"
  METRIC_NAME: "IC50"
  RESULT: "≤ 0.01 µM"

Give one value of IC50 per listed molecule.
1. CC[C@H](C)[C@@H]1NC(=O)[C@@H]2C[C@@H](F)CN2C(=O)[C@@H]2CCCN2C(=O)[C@H](Cc2ccccc2)NC(=O)[C@H](Cc2ccc(O)cc2)NC(=O)[C@H](CCC(N)=O)NC(=O)[C@H](CCCNC(N)=O)NC(=O)[C@@H](NC(=O)CCC(C)C)CSSC[C@@H](C(N)=O)NC(=O)[C@H](CC(C)C)NC1=O [UPAR-220] ({Pentanoyl(4-Me)}-C[Cit]QYFP[Pro(trans-4-F)]ILC-NH2; disulfide 1-10)
2. CCCCC(=O)N[C@H]1CSSC[C@@H](C(N)=O)NC(=O)[C@H](CCC)NC(=O)[C@H]([C@@H](C)CC)NC(=O)[C@@H]2C[C@@H](N)CN2C(=O)[C@@H]2CCCN2C(=O)[C@H](Cc2ccccc2)NC(=O)[C@H](Cc2ccc(O)cc2)NC(=O)[C@H](CCCNC(=N)N)NC(=O)[C@H](CCCNC(=N)N)NC1=O [UPAR-313] (Pentanoyl-CRRYFP[Pro(4R-NH2)]I[Nva]C-NH2; disulfide 1-10)

Ans.
1: ≤ 0.01 µM; 2: ≤ 0.01 µM
